- TEST_TARGET: PIM-1 (Homo sapiens (Human), UniProt P11309)
- Sequence (P11309 whole entry, species assumed): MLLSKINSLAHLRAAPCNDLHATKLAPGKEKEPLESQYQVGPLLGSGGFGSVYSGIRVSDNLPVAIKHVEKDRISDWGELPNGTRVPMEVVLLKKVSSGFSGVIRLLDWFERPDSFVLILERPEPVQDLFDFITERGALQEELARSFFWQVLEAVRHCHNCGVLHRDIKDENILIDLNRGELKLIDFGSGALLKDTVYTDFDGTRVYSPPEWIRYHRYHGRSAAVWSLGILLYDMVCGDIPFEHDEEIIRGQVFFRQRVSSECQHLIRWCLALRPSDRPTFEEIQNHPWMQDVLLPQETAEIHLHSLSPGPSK
- MEASUREMENT_PROTOCOL: PIM-1 Enzyme Assay
- Format: biochemical
- EXPERIMENTAL_SETUP: 35 μM ATP, 0.25 nM PIM-1
- Protocol: The amount of radiolabeled product is then measured by liquid scintillation counting. The final buffer conditions were as follows: 20 mM K^+MOPS, pH 7.4, 10 mM MgCl2, 0.005% Tween-20, 1 mM DTT. […] Liquid scintillation cocktail (50 μL ) was then added per well, and the plate was counted for 30 s/well using a TopCount NXT. […]
Where a name gives a salt, the structure may show the parent alone.
Classify: Satisfied when IC50 is strictly less than 20 nM; Not satisfied when IC50 is not.

Dear colleague, could you confirm whether IC50 of CCN1CCC(F)(COc2cccc3ccc(-c4nnc5ccccn45)nc23)CC1 [Example 104, dihydrochloride] falls below 20 nM? Thanks. Satisfied

Decide: IC50 of CCCC(Oc1cccc2ccc(-c3nnc4ccccn34)nc12)[C@H](CC)CN (stereo partly shown) strictly below 20 nM? Satisfied

Bench note: check whether c1cc(N[C@H]2CCNC2)c2nc(-c3nnc4ccccn34)ccc2c1 shows IC50 below 20 nM Not satisfied

Does this molecule meet the criterion IC50 < 20 nM? Cc1ccn2c(-c3ccc4cccc(OC5CCNCCC5F)c4n3)nnc2c1 (single isomer, unassigned) [Example 122] Satisfied

Lab log: compare recorded IC50 with 20 nM; is it strictly lower for FC1CCNCCC1Oc1cccc2ccc(-c3nnc4ccccn34)nc12 (single isomer, unassigned) [Example 49, dihydrochloride] ? Satisfied

Field: below-cutoff. Rule: recorded IC50 strictly less than 20 nM. Subject: FC1CCNCCC1Oc1cccc2ccc(-c3nnc4ccccn34)nc12 (single isomer, unassigned) [Example 47, dihydrochloride] Not satisfied

IC50 under 20 nM? Item: CC1(COc2cccc3ccc(-c4nnc5ccccn45)nc23)CCN(CCO)CC1 [Example 86, dihydrochloride] Satisfied

IC50 strictly < 20 nM for this molecule? FC1(COc2cccc3ccc(-c4nnc5ccc(Br)cn45)nc23)CCNCC1 [Example 77, dihydrochloride] Satisfied

Does this molecule meet the criterion IC50 < 20 nM? F[C@@H]1CCNCC[C@H]1Oc1cccc2ccc(-c3nnc4ccc(C5CC5)cn34)nc12 (relative stereo) [Example 98, dihydrochloride] Satisfied

Hello, is IC50 of the following molecule strictly smaller than 20 nM? F[C@@H]1CNCC[C@@H]1Oc1cccc2ccc(-c3nnc4ccc(C5CC5)cn34)nc12 (relative stereo) [Example 80, dihydrochloride] Satisfied

Is the reported IC50 for c1cc(OC2CCNCC2)c2nc(-c3nnc4ccccn34)ccc2c1 [Example 9, di-trifluoroacetate] strictly below 20 nM? Satisfied

hey, is IC50 for OCCN1CCC(F)(COc2cccc3ccc(-c4nnc5ccccn45)nc23)CC1 [Example 85, dihydrochloride] lower than 20 nM or not? Satisfied

Confirm or reject: IC50 of Fc1ccn2c(-c3ccc4cccc(OC5CCNCC5F)c4n3)nnc2c1 (stereo not shown) lies strictly below 20 nM Not satisfied

Record NCC1(COc2cccc3ccc(-c4nnc5ccccn45)nc23)CCCC1 : is its IC50 strictly below 20 nM? Satisfied

Does CCC1(COc2cccc3ccc(-c4nnc5ccccn45)nc23)CCNCC1 [Example 68, dihydrochloride] have IC50 strictly under 20 nM? Satisfied

Is IC50 of CN(C)C(=O)[C@@H]1C[C@@H](Oc2cccc3ccc(-c4nnc5ccccn45)nc23)CCN1 [Example 54, dihydrochloride] strictly below 20 nM? Not satisfied

Is IC50 strictly under 20 nM for the entry CC[C@H](CN)C(C)Oc1cccc2ccc(-c3nnc4ccccn34)nc12 (stereo partly shown) ? Satisfied

hey, is IC50 for CC[C@@H](CN)C(C)Oc1cccc2ccc(-c3nnc4ccccn34)nc12 (stereo partly shown) lower than 20 nM or not? Satisfied

Hello, I'm reviewing records and need to know if IC50 of CCC(Oc1cccc2ccc(-c3nnc4ccccn34)nc12)[C@H](CC)CN (stereo partly shown) is below 20 nM. Could you check? Satisfied

IC50 strictly < 20 nM for this molecule? OC1(COc2cccc3ccc(-c4nnc5ccccn45)nc23)CCN(Cc2ccccc2)CC1 Satisfied

Lab log: compare recorded IC50 with 20 nM; is it strictly lower for Cc1ccn2c(-c3ccc4cccc(OCC(C)(C)CN)c4n3)nnc2c1 [Example 123, trihydrochloride] ? Satisfied

Consider the molecule Fc1cc(OC2CCNCCC2F)c2nc(-c3nnc4ccccn34)ccc2c1 (single isomer, unassigned) [Example 121] . Is its IC50 strictly less than 20 nM? Not satisfied

Please check: IC50 for COC[C@@H]1CC(Oc2cccc3ccc(-c4nnc5ccccn45)nc23)CCN1 (stereo partly shown) , strictly under 20 nM or not? Satisfied

Report whether reported IC50 is lower than 20 nM (strictly) for CC(C)(CNCC(F)F)COc1cccc2ccc(-c3nnc4ccccn34)nc12 [Example 135, hydrochloride] Satisfied

Here's an entry: c1cc(OCCC2CCCCN2)c2nc(-c3nnc4ccccn34)ccc2c1 (stereo not shown) . Is its IC50 below 20 nM? Satisfied

Report whether reported IC50 is lower than 20 nM (strictly) for CC1(COc2cccc3ccc(-c4nnc5ccccn45)nc23)CCNCC1 [Example 67, dihydrochloride] Satisfied

Does this molecule meet the criterion IC50 < 20 nM? CC(C)(CN)COc1cc(F)cc2ccc(-c3nnc4ccccn34)nc12 Satisfied

Say whether its IC50 is strictly beneath 20 nM. Entry: c1cc(O[C@@H]2CCNC2)c2nc(-c3nnc4ccccn34)ccc2c1 Not satisfied

Criterion: IC50 strictly below 20 nM. Is it met by F[C@H]1CNCC[C@@H]1Oc1cccc2ccc(-c3nnc4ccccn34)nc12 (relative stereo) ? Satisfied

I'd appreciate it if you could check whether CN1CC[C@@H](F)[C@H](Oc2cccc3ccc(-c4nnc5ccccn45)nc23)CC1 (relative stereo) has IC50 smaller than 20 nM. Satisfied

Does Fc1cc(OC2CCNCCC2F)c2nc(-c3nnc4ccccn34)ccc2c1 (single isomer, unassigned) [Example 91] have IC50 strictly under 20 nM? Satisfied

----------
- TEST_TARGET: GST-tagged recombinant full-length human PIM-2 (Homo sapiens (Human))
- Sequence (Q9P1W9 whole entry): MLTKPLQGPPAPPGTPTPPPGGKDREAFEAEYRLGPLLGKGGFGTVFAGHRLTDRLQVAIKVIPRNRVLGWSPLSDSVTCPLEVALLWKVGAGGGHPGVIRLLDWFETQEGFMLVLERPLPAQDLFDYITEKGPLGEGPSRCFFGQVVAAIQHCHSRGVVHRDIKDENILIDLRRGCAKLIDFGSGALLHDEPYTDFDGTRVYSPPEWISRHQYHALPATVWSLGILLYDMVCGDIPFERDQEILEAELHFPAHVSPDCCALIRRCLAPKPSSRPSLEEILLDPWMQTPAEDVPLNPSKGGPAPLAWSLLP
- MEASUREMENT_PROTOCOL: PIM-2 Enzyme Assay
- EXPERIMENTAL_SETUP: read-out: PIM-2 IC50; 4 μM ATP, […] PIM-2
Structures can show the parent of a compound that is named as a salt.
PARAMETER_MEASURED: IC50 (nM)
Just the number in nM, nothing appended.

In plain terms, c1cc(OC2CCCNCC2)c2nc(-c3nnc4ccccn34)ccc2c1 (single isomer, unassigned) [Example 127] has a documented IC50 of 438

Just so you know, measured IC50 for FC1(COc2cccc3ccc(-c4nnc5ccc(-c6ccccc6)cn45)nc23)CCNCC1 [Example 81, dihydrochloride] came out at 142

Value of measured IC50 for the entry CNCC(C)(C)COc1cccc2ccc(-c3nnc4ccccn34)nc12 : 143

# IC50 (compound: COC1(COc2cccc3ccc(-c4nnc5cc(C)ccn45)nc23)CCNCC1 [Example 125, di-trifluoroacetate] ) is 429

Recorded IC50 (compound Fc1cc(OC2CCNCCC2F)c2nc(-c3nnc4ccccn34)ccc2c1 (single isomer, unassigned) [Example 120] ): 959

Lookup result for CC(C)(CN)COc1cccc2ccc(-c3nnc4ccc(-c5ccccc5)cn34)nc12 [Example 65, dihydrochloride] ; measured IC50: 174

Recorded result, CC[C@H](CN)C(C)Oc1cccc2ccc(-c3nnc4ccccn34)nc12 (some centres unmarked) , IC50: 279

IC50 measured on O[C@H]1CC[C@H](Nc2cccc3ccc(-c4nnc5ccccn45)nc23)CC1 = 807
